biological target: mGluR4 (Homo sapiens, UniProt Q14833); experiment: mGlu4 PAM potentiation assay, CHO cells transfected with human mGluR4, Ca2+-sensitive dye fluorescence
Sequence (Q14833 33-912 limits assumed): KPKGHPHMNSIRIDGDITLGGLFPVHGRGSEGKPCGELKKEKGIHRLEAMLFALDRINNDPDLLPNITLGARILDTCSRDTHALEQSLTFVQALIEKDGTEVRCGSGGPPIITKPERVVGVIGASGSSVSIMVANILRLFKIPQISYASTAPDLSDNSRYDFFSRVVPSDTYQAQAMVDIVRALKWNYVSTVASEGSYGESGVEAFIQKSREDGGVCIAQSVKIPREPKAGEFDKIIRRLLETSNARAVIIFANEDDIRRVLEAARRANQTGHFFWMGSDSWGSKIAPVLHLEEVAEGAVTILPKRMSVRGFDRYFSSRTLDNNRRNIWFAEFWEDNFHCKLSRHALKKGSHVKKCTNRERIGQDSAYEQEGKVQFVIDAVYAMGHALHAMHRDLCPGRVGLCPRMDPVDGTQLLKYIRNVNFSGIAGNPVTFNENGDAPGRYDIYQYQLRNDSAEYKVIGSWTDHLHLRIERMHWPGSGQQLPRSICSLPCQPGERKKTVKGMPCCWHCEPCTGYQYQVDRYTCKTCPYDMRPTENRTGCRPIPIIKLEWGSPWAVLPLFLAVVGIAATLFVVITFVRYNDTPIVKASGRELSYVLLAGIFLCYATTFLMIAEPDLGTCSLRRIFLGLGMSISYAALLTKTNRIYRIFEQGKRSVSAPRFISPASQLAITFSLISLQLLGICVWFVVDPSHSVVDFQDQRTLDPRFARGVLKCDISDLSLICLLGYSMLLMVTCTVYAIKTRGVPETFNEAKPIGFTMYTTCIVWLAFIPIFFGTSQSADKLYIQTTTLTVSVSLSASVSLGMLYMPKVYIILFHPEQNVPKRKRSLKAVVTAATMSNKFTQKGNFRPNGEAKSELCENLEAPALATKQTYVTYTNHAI
reported metric: EC50 (nM)
Just the number please, in nM, no unit attached.

Known results for compounds:
{"compound": "CC1(C)CC(Nc2nccc3cc(NC(=O)c4ncccc4N)ccc23)CCO1 (stereo not drawn)", "EC50 (nM)": 616}
{"compound": "CCOCCOc1nccc2cc(NC(=O)c3ncccc3O)ccc12", "EC50 (nM)": 229}
{"compound": "O=C(Nc1ccc2c(OCC3CCOC3)nccc2c1)c1nc(F)ccc1F (stereo not drawn)", "EC50 (nM)": 800}
{"compound": "CC1(C)CC(Oc2nccc3cc(NC(=O)c4ncccc4F)cc(F)c23)CCO1 (stereo not drawn)", "EC50 (nM)": 120}
{"compound": "CC(C)OCCOc1nccc2cc(NC(=O)c3ccccn3)ccc12", "EC50 (nM)": 264}
{"compound": "O=C(Nc1ccc2c(OCC3CCOC3)nccc2c1)c1ccccn1 (stereo not drawn)", "EC50 (nM)": 59.5}
{"compound": "CC1(C)CC(Oc2nccc3cc(NC(=O)c4ccc(F)cn4)cc(F)c23)CCO1 (stereo not drawn)", "EC50 (nM)": 142}
{"compound": "O=C(Nc1ccc2c(OCC3COCCO3)nccc2c1)c1ccc(F)cn1 (stereo not drawn)", "EC50 (nM)": 285}

Summary for this compound, Nc1cccnc1C(=O)Nc1ccc2c(OC[C@@H]3CCOC3)nccc2c1 : EC50 is 114
